# inhibition of growth at 0.2 ppm per entry
# Tested on: Phytophthora capsici (PHY)
# procedureText: In-vitro plant fungicide test
# Type: cell-based
# measurementContext: Phytophthora capsici; .2 ppm; Table IVb; read-out: % Control at (ppm) indicated PHY
Where a name gives a salt, the structure may show the parent alone.
State the value with its unit after it.

1. CC(C)(C)OC(=O)NCC(=O)OCC#CI : 0%
2. O=C(CN1C(=O)c2ccccc2C1=O)OCC#CI : 0%
3. CC(=O)NCC(=O)OCC#CI : 0%

Now examine the next entry.
Missing value: inhibition of growth at 0.2 ppm, Phytophthora capsici (PHY), entry C[C@H](N)C(=O)N[C@@H](COCc1ccccc1)C(=O)OCC#CI [Compound 19, trifluoroacetate] . Fill in?
0%
